For each record, write down the corresponding Inhibition.
tested on: Plasmodium falciparum; assay: GSK_TCMDC: Inhibition of Plasmodium falciparum Dd2 in whole red blood cells, using parasite LDH activity as an index of growth. Test compounds present at 2uM; assay type: functional

Return reported Inhibition; argument: COc1ccc(C2C(C(=O)Nc3cc(C)ccc3OC)c3ccccc3C(=O)N2C)cc1 (centres undefined)
3%

Return reported Inhibition; argument: CC(=O)Nc1ccc(S(=O)(=O)Nc2ccc(Nc3nc(C)cc(N(C)C)n3)cc2)cc1
22%

Return reported Inhibition; argument: Br.N=C1N=C(N)NC2(CCCCC2)N1OCCCOc1cccc2ccccc12
96%

Return reported Inhibition; argument: Cl.c1ccc2c(NCCCCCCCCNc3ccnc4ccccc34)ccnc2c1
35%

Return reported Inhibition; argument: CC(C)(C)CN1C(=O)C(c2ccccc2)(c2ccccc2)N=C1N.O=CO
94%

Return reported Inhibition; argument: Nc1nccc2ccc(-c3ccncc3)cc12
95%

Return reported Inhibition; argument: CCN1CCC(N(Cc2ccc(-c3ccc(C(F)(F)F)s3)cc2)C(=O)Cn2c(CCc3cccc(F)c3F)nc(=O)c3ccccc32)CC1.O=C(O)C(O)C(O)C(=O)O
95%

Return reported Inhibition; argument: Cc1ccc(Cc2c[nH]c(NCCSCc3ccc(CN4CCOCC4)o3)nc2=O)cn1
0%

Return reported Inhibition; argument: CC(=O)/N=C1\N=C(NC(C)=O)NC(C)(C)N1OCCCOc1ccc(Cl)c(Cl)c1
94%

Return reported Inhibition; argument: Cc1nn(CC(O)Cn2c3ccc(Br)cc3c3cc(Br)ccc32)c(C)c1Br (centres undefined)
81%

Return reported Inhibition; argument: COc1ccc(-c2ccc(NC(=O)c3ccc(C#N)cc3)cc2)cc1CN(C)CCO.O=C(O)C(F)(F)F
44%

Return reported Inhibition; argument: COc1ccc(Nc2nccc(NCC(O)c3ccc(C(F)(F)F)cc3)n2)cc1 (centres undefined)
54%

Return reported Inhibition; argument: CC(C)CN(c1nc(C(=O)NNC(=O)[C@H](CC2CC2)NC(=O)c2cc3cc(OCCN4CCCCC4)ccc3o2)cs1)C1CC1
98%

Return reported Inhibition; argument: Cc1ccc(C(=O)Nc2cccc(CN3CCCN(Cc4ccc(O)cc4)CC3)c2)s1.O=C(O)C(F)(F)F
23%

Return reported Inhibition; argument: O=C(Nc1cccc(CCNCc2ccccc2)c1)Nc1cccc2ccccc12.O=C(O)C(F)(F)F
8%

Return reported Inhibition; argument: COc1cc(NC(=O)c2cc([N+](=O)[O-])ccc2NC(=O)CNC2CCCCC2C)cc(OC)c1 (centres undefined)
78%

Return reported Inhibition; argument: Cc1nc(-c2ccc(-c3ccc(C(=O)Nc4ccc(-n5ccnc5)c(N5CCN(C)CC5)c4)cc3)c(C)c2)no1
100%

Return reported Inhibition; argument: COCCOc1cc(C)c(C2CCN(CCCCNC(=O)c3ccc(NC(=O)c4ccc(Cl)cc4)cc3)CC2)cc1C
30%

Return reported Inhibition; argument: OC(Cn1ccnc1)(c1ccc(Cl)cc1Cl)C1CCCCC1 (centres undefined)
58%

====

system: HepG2; experiment: GSK_TCMDC: Percent inhibition of human HepG2 cell line. Test compounds present at 10uM.; assay type: functional
quantity: Inhibition (%)
Kindly answer with a numeric value in %, unit omitted.

Return reported Inhibition; argument: O=C(Nc1cccc(CN2CCCN(Cc3cccc(Cl)c3)CC2)c1)c1ccc(-c2ccccc2)cc1.O=C(O)C(F)(F)F
44

Return reported Inhibition; argument: CN1CCCC(CN2CCN(Cc3ccc(-c4ccc(-c5nc6cc(F)ccc6[nH]5)s4)cc3)CC2)C1.O=C(O)C(F)(F)F (centres undefined)
73

Return reported Inhibition; argument: CCN(CC)CCN(Cc1ccc(-c2ccc(C(F)(F)F)cc2)cc1)C(=O)Cn1c(CCc2cc(F)cc(F)c2)nc(=O)c2ccccc21.O=C(O)C(O)C(O)C(=O)O
30

Return reported Inhibition; argument: COc1cc(C)ccc1S(=O)(=O)N1CCCCC(c2ccc(C(F)(F)F)cc2)=N1
16
